assay: MTT cell viability assay in Huh7 cells; assay type: cell-based; details: human
Where a SMILES comes first, the peptide text is derived from it. [ ]: non-standard residue; d: D form. The star is where a group is joined. Nle = CCCC[CH](N)C(=O)O; Cbz = O=C(OCc1ccccc1)*
READOUT_NAME: CC50 at 24 h (µM)
Give the number; µM is assumed, so skip it.

The following compounds have reported results that may help.
>>> number("CC1(C)CCC2=C(O1)c1ccccc1C(=O)C2=O")
47.4
>>> number("CCCCCCCCCC(=O)N[C@@H](Cc1c[nH]c2ccccc12)C(=O)N[C@H](CC(N)=O)C(=O)N[C@@H](CC(=O)O)C(=O)N[C@@H]1C(=O)NCC(=O)N[C@@H](CCCN)C(=O)N[C@@H](CC(=O)O)C(=O)N[C@H](C)C(=O)N[C@@H](CC(=O)O)C(=O)NCC(=O)N[C@H](CO)C(=O)N[C@@H]([C@H](C)CC(=O)O)C(=O)N[C@@H](CC(=O)c2ccccc2N)C(=O)O[C@@H]1C")
3570

Looking for the measured CC50 at 24 h of CCCC[C@@H](C=O)NC(=O)[C@H](CC(C)C)NC(=O)OCc1ccccc1 , can you help?
116

Looking for the measured CC50 at 24 h of CC(C)C[C@@H](C=O)NC(=O)[C@H](CC(C)C)NC(=O)[C@H](CC(C)C)NC(=O)OCc1ccccc1 [Mg-132] (Cbz-Leu-Leu-Leu-aldehyde) , can you help?
100

Looking for the measured CC50 at 24 h of CCCCC(C=O)NC(=O)C(CC(C)C)NC(=O)C(CC(C)C)NC(C)=O (stereo not drawn) [Mg-101] (Ac-Leu-Leu-[Nle]-aldehyde; configuration not given here) , can you help?
64.3

Looking for the measured CC50 at 24 h of CC(NC(=O)C(Cc1ccccc1)NC(=O)OCc1ccccc1)C(=O)CF (stereo not shown) , can you help?
328
